Value source: the supplement of paper PMC9588766

cell viability listing for selected compounds.
- System: PDC-DUC18828
- assay.overview: cell viability of compound + 1 nM pemigatinib relative to pemigatinib-only (DMSO) wells (fraction); higher = less growth inhibition
- protocol.conditions: first compound 1 µM; pemigatinib concentration 1 nM; 72 h
The full ranking holds about 1,900 compounds; the median of “cell viability of compound + 1 nM pemigatinib relative to pemigatinib-only (DMSO) wells” is about 0.95 nM, and the lowest 2% start at about 0.22 nM. This excerpt belongs to a sample that is enriched for the lowest values.
// return just the number, without any unit appended

Reference set, count: 2
* COc1ncc(-c2ccc3nccc(-c4ccnnc4)c3c2)cc1NS(=O)(=O)c1ccc(F)cc1F + CCN1C(=O)N(c2c(F)c(OC)cc(OC)c2F)Cc2cnc3[nH]c(CN4CCOCC4)cc3c21 [pemigatinib] | 0.201
* CNC(=O)CN1CCC(Oc2cc3c(Nc4cccc(Cl)c4F)ncnc3cc2OC)CC1 [AZD8931 (Sapitinib)] + CCN1C(=O)N(c2c(F)c(OC)cc(OC)c2F)Cc2cnc3[nH]c(CN4CCOCC4)cc3c21 [pemigatinib] | 0.809

--- query ---
Query: Notebook: pull reported cell viability for PDC-DUC18828, entry CCCS(=O)(=O)Nc1ccc(F)c(C(=O)c2c[nH]c3ncc(-c4ccc(Cl)cc4)cc23)c1F [Vemurafenib (PLX4032, RG7204)] + CCN1C(=O)N(c2c(F)c(OC)cc(OC)c2F)Cc2cnc3[nH]c(CN4CCOCC4)cc3c21 [pemigatinib]
Response: 0.955

====

- Test system: PDC-DUC18828
- assay.overview: cell viability of compound + 1 nM pemigatinib relative to pemigatinib-only (DMSO) wells (fraction); higher = less growth inhibition
- protocol.conditions: first compound 1 µM; pemigatinib concentration 1 nM; 72 h
Over roughly 1,900 compounds, “cell viability of compound + 1 nM pemigatinib relative to pemigatinib-only (DMSO) wells” has its median near 0.95 nM; the lowest 2% begin near 0.22 nM. For the sample, the lowest values were picked, then their nearest neighbours and some compounds at random.
measured.property: cell viability
// return just the number, without any unit appended

• CC(C)CC(=O)Nc1n[nH]c2c1CN(C(=O)C1CCN(C)CC1)C2(C)C + CCN1C(=O)N(c2c(F)c(OC)cc(OC)c2F)Cc2cnc3[nH]c(CN4CCOCC4)cc3c21 = 0.874

Query: Any idea what its cell viability is? The compound is Cc1cnc(-c2ccccc2C(C)C)nc1NCc1ccc(-n2ccnn2)cc1 + CCN1C(=O)N(c2c(F)c(OC)cc(OC)c2F)Cc2cnc3[nH]c(CN4CCOCC4)cc3c21
Response: 0.914

Query: Any idea what its cell viability is? The compound is O=C(O)c1cc2cccc([N+](=O)[O-])c2[nH]1 + CCN1C(=O)N(c2c(F)c(OC)cc(OC)c2F)Cc2cnc3[nH]c(CN4CCOCC4)cc3c21
Response: 0.912

Query: Any idea what its cell viability is? The compound is COC1CCN(C(=O)c2cc(Cc3n[nH]c(=O)c4ccccc34)ccc2F)CC1 + CCN1C(=O)N(c2c(F)c(OC)cc(OC)c2F)Cc2cnc3[nH]c(CN4CCOCC4)cc3c21
Response: 0.884

Query: Any idea what its cell viability is? The compound is CCCc1cc2c(N3CCN(C4=NCC(C)(C)S4)CC3)ncnc2s1 [MI-2 (Menin-MLL Inhibitor)] + CCN1C(=O)N(c2c(F)c(OC)cc(OC)c2F)Cc2cnc3[nH]c(CN4CCOCC4)cc3c21
Response: 0.902

====

- System: PDC-DUC18828
- assay.overview: cell viability of compound + 1 nM pemigatinib relative to pemigatinib-only (DMSO) wells (fraction); PDC-DUC18828 is a patient-derived cholangiocarcinoma cell line; higher = less growth inhibition
- protocol.conditions: first compound 1 µM; pemigatinib concentration 1 nM; 72 h
Whole data set: some 1,900 compounds, median “cell viability of compound + 1 nM pemigatinib relative to pemigatinib-only (DMSO) wells” near 0.95 nM, cut for the lowest 2% near 0.22 nM. What follows is part of a selection rich in the lowest values, with near analogues and random picks from the rest.
cell viability listing for selected molecules.
// return just the number, without any unit appended

Reference set, count: 5
* O=C(Nc1cccnc1)c1cc(-c2ccnc(F)c2)ccc1OCc1ccccc1 + CCN1C(=O)N(c2c(F)c(OC)cc(OC)c2F)Cc2cnc3[nH]c(CN4CCOCC4)cc3c21 | 0.914
* O=C(c1ccccc1)c1ccc2nc(NC(=O)c3csc(C4CCN(c5ncnc6ccsc56)CC4)n3)[nH]c2c1 + CCN1C(=O)N(c2c(F)c(OC)cc(OC)c2F)Cc2cnc3[nH]c(CN4CCOCC4)cc3c21 | 0.96
* COc1cccc2c1C(=O)c1c(O)c3c(c(O)c1C2=O)C[C@@](O)(C(=O)CO)C[C@@H]3O[C@H]1C[C@H](N)[C@H](O)[C@H](C)O1 [Doxorubicin (Adriamycin)] + CCN1C(=O)N(c2c(F)c(OC)cc(OC)c2F)Cc2cnc3[nH]c(CN4CCOCC4)cc3c21 | 0.137
* CS(=O)(=O)N1CCN(Cc2cc3nc(-c4cccc5[nH]ncc45)nc(N4CCOCC4)c3s2)CC1 + CCN1C(=O)N(c2c(F)c(OC)cc(OC)c2F)Cc2cnc3[nH]c(CN4CCOCC4)cc3c21 | 0.865
* O=C(O)CCCc1c[nH]c2ccccc12 [3-Indolebutyric acid (IBA)] + CCN1C(=O)N(c2c(F)c(OC)cc(OC)c2F)Cc2cnc3[nH]c(CN4CCOCC4)cc3c21 | 0.948

Query: Any idea what its cell viability is? The molecule is Cc1nn(C)c2c1C(c1ccc(C(F)(F)F)cc1)C(C#N)=C(N)O2 (stereo not given) + CCN1C(=O)N(c2c(F)c(OC)cc(OC)c2F)Cc2cnc3[nH]c(CN4CCOCC4)cc3c21
Response: 0.921

Query: Any idea what its cell viability is? The molecule is COc1cc([C@@H]2c3cc4c(cc3[C@@H](O[C@@H]3O[C@@H]5CO[C@@H](C)O[C@H]5[C@H](O)[C@H]3O)[C@H]3COC(=O)[C@H]23)OCO4)cc(OC)c1O [Etoposide] + CCN1C(=O)N(c2c(F)c(OC)cc(OC)c2F)Cc2cnc3[nH]c(CN4CCOCC4)cc3c21
Response: 0.57

Query: Any idea what its cell viability is? The molecule is COc1cc(NC(=O)c2ccc(-c3ccc(Cl)cc3)o2)cc(OC)c1 + CCN1C(=O)N(c2c(F)c(OC)cc(OC)c2F)Cc2cnc3[nH]c(CN4CCOCC4)cc3c21
Response: 1.01

Query: Any idea what its cell viability is? The molecule is Cc1cccc(-c2[nH]c(CNc3ccccc3F)nc2-c2ccc3ncnn3c2)n1 + CCN1C(=O)N(c2c(F)c(OC)cc(OC)c2F)Cc2cnc3[nH]c(CN4CCOCC4)cc3c21
Response: 0.947

Query: Any idea what its cell viability is? The molecule is Nc1ccc(-c2ccc3ncc4ccc(=O)n(-c5cccc(C(F)(F)F)c5)c4c3c2)cn1 [Torin 2] + CCN1C(=O)N(c2c(F)c(OC)cc(OC)c2F)Cc2cnc3[nH]c(CN4CCOCC4)cc3c21
Response: 0.203
